target under test: S. pyogenes SKKanGAS, kanamycin survival, BacTiterGlo, 6 h
assay text: S. pyogenes SKKanGAS kanamycin growth inhibitors – SKKanGAS strain, luminescence, dose confirmation, streptokinase promoter inhibitor project, dose response (AID 1902);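 active = EC50 no more than a set limit of log units above the highest dose; inactive = the rest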;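 also: lower survival reflects blocked streptokinase promoter driving kanamycin resistance gene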
Outcome field: choose from active, inactive

Examples with answers:
O=C(NNC(=O)c1cc(-c2ccc(Cl)c(Cl)c2)nc2ccccc12)Nc1ccccc1    active
CCCCOC(=O)c1ccc(NC(=S)N2CCN(c3ncc4c(=O)c(C(=O)O)cn(CC)c4n3)CC2)cc1    active

We now examine a further molecule.
### Prompt What call does the record list for Cc1[nH]n(-c2ccccc2)c(=O)c1/C=N/NC(=O)c1ccccc1F ?
### Response active

All figures here come from PubChem BioAssay AID1902.
